test system: Staphylococcus aureus; experiment: Antimicrobial activity against methicillin-resistant Staphylococcus aureus 573/12 after 18 hrs by two-fold serial microdilution method; type: functional; settings: 573/12, 18 h
Threshold-based label: MIC under 8 µM gives True, MIC not under 8 µM gives False.

# structure-notation, qualitative-label
data = [
    ("O=c1[nH]c(=O)n([C@H]2C[C@H](O)[C@@H](CO)O2)cc1F", "True"),
    ("CC[C@@H](C(=O)[C@@H](C)[C@@H](O)[C@H](C)[C@@H]1O[C@@H]([C@@H](CC)C(=O)O)CC[C@@H]1C)[C@H]1O[C@]2(C=C[C@@H](O)[C@]3(CC[C@@](C)([C@H]4CC[C@](O)(CC)[C@H](C)O4)O3)O2)[C@H](C)C[C@@H]1C", "True"),
]

Please state whether MIC is below 8 µM for "CC[C@@H](C(=O)[C@@H](C)[C@@H](O)[C@H](C)[C@@H]1O[C@@H]([C@@H](CC)C(=O)NCc2cn([C@H]3C[C@H](n4cc(F)c(=O)[nH]c4=O)O[C@@H]3CO)nn2)CC[C@@H]1C)[C@H]1O[C@]2(C=C[C@@H](O)[C@]3(CC[C@@](C)([C@H]4CC[C@](O)(CC)[C@H](C)O4)O3)O2)[C@H](C)C[C@@H]1C" False

Please state whether MIC is below 8 µM for "[N-]=[N+]=N[C@H]1C[C@H](n2cc(F)c(=O)[nH]c2=O)O[C@@H]1CO" True

Please state whether MIC is below 8 µM for "O=c1[nH]cc(F)c(=O)[nH]1" True

Please state whether MIC is below 8 µM for "O=C(O)c1cn(C2CC2)c2cc(N3CCNCC3)c(F)cc2c1=O" False

====

test: Antiproliferative activity against human HL60 cells assessed as growth inhibition after 72 hrs by MTT assay; format: functional, cell-based; details: HL-60, 72 h
experimental-endpoint: IC50 (nM)
// units = nM; emit number, no label

Use the examples below as a reference point.
# structure-notation, unit-label, IC50
data = [
    ("[N-]=[N+]=N[C@H]1C[C@H](n2cc(F)c(=O)[nH]c2=O)O[C@@H]1CO", "nM", 180000),
    ("CC[C@@H](C(=O)[C@@H](C)[C@@H](O)[C@H](C)[C@@H]1O[C@@H]([C@@H](CC)C(=O)O)CC[C@@H]1C)[C@H]1O[C@]2(C=C[C@@H](O)[C@]3(CC[C@@](C)([C@H]4CC[C@](O)(CC)[C@H](C)O4)O3)O2)[C@H](C)C[C@@H]1C", "nM", 290),
]

Shift focus to the following entry.
What does the record list as IC50 for "O=c1[nH]c(=O)n([C@H]2C[C@H](O)[C@@H](CO)O2)cc1F" ? 240

====

Entries and their Ratio IC50
system: HL-60; experiment: Resistance index, ratio of IC50 for human HL60/Vinc cells to IC50 for human HL60 cells
Number, no unit, nothing else.

# structure-notation, Ratio IC50
data = [
    ("CC[C@@H](C(=O)[C@@H](C)[C@@H](O)[C@H](C)[C@@H]1O[C@@H]([C@@H](CC)C(=O)OC[C@H]2O[C@@H](n3cc(F)c(=O)[nH]c3=O)C[C@@H]2O)CC[C@@H]1C)[C@H]1O[C@]2(C=C[C@@H](O)[C@]3(CC[C@@](C)([C@H]4CC[C@](O)(CC)[C@H](C)O4)O3)O2)[C@H](C)C[C@@H]1C", 7.62),
]

What does the record list as Ratio IC50 for "CC[C@@H](C(=O)[C@@H](C)[C@@H](O)[C@H](C)[C@@H]1O[C@@H]([C@@H](CC)C(=O)O)CC[C@@H]1C)[C@H]1O[C@]2(C=C[C@@H](O)[C@]3(CC[C@@](C)([C@H]4CC[C@](O)(CC)[C@H](C)O4)O3)O2)[C@H](C)C[C@@H]1C" ? 7.21

What does the record list as Ratio IC50 for "[N-]=[N+]=N[C@H]1C[C@H](n2cc(F)c(=O)[nH]c2=O)O[C@@H]1CO" ? 1.63

What does the record list as Ratio IC50 for "O=c1[nH]cc(F)c(=O)[nH]1" ? 0.94

What does the record list as Ratio IC50 for "O=c1[nH]c(=O)n([C@H]2C[C@H](O)[C@@H](CO)O2)cc1F" ? 72.5
